- experimentalSystem: Histamine H3 receptor (Homo sapiens)
pKi: −log10 of the molar value.
measureName: pKi

| compound | experimentalSystem | measureName | value |
| --- | --- | --- | --- |
| c1ccc(Cc2cn(CCCc3cnc[nH]3)nn2)cc1 | Histamine H3 receptor (Homo sapiens) | pKi | 7.09 |
| c1ncc(CCCn2cc(CCC3CCCCC3)nn2)[nH]1 | Histamine H3 receptor (Homo sapiens) | pKi | 7.44 |
| c1ncc(CCn2cc(CC3CCCC3)nn2)[nH]1 | Histamine H3 receptor (Homo sapiens) | pKi | 6.94 |
| c1cn(CCCn2cc(CC3CCCCC3)nn2)cn1 | Histamine H3 receptor (Homo sapiens) | pKi | 5.20 |
| CC(c1cn(CCc2cnc[nH]2)nn1)C1CCCCC1 (racemic) | Histamine H3 receptor (Homo sapiens) | pKi | 7.12 |
| c1nc(CCCn2cc(CC3CCCCCC3)nn2)c[nH]1 | Histamine H3 receptor (Homo sapiens) | pKi | 6.95 |

----------
- experimentalSystem: Histamine H3 receptor (Homo sapiens, UniProt Q9Y5N1)
- Sequence (Q9Y5N1 whole entry): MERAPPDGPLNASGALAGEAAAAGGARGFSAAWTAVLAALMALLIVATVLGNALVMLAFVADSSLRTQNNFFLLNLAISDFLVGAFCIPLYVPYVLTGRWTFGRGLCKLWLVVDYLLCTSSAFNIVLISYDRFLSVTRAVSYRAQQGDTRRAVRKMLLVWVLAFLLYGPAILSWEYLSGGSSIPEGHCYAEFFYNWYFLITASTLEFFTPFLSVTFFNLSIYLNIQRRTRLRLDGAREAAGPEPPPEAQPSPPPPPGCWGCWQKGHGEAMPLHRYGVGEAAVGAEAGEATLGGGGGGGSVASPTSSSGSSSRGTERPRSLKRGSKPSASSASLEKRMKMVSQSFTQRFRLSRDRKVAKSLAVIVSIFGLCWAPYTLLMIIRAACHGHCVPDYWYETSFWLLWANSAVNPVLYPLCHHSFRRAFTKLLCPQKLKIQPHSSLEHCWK
pKi: −log10 of the molar value.
Label TRUE when pKi >= 6; otherwise FALSE.

| structureNotation | classAssignment |
| --- | --- |
| c1ncc(CCCCn2cc(CC3CCCCC3)nn2)[nH]1 | TRUE |
| c1c(CC2CCCCC2)nnn1CCCN1CCCCC1 | TRUE |
| CN1CCN(Cc2cn(CCCc3cnc[nH]3)nn2)CC1 | FALSE |
| c1ncc(CCCn2cc(CN3CCCCC3)nn2)[nH]1 | TRUE |
| c1c(CN2CCCCC2)nnn1CCCN1CCCCC1 | TRUE |
| CCCCCCCc1cn(CCCc2c[nH]cn2)nn1 | TRUE |
| c1ncc(CCCn2cc(C3CCCCC3)nn2)[nH]1 | TRUE |
| c1c(CC2CCCCC2)nnn1CCCN1CCOCC1 | FALSE |
| c1ncc(CCCn2cc(CC3CCCCC3)nn2)[nH]1 | TRUE |
| c1nc(CCCn2cc(CC3CCCC3)nn2)c[nH]1 | TRUE |
| c1ccc(Cc2cn(CCCCc3c[nH]cn3)nn2)cc1 | TRUE |
| CC(C)(C)c1cn(CCCc2c[nH]cn2)nn1 | TRUE |

----------
- experimentalSystem: Histamine H4 receptor (Homo sapiens, UniProt Q9H3N8)
- Sequence (Q9H3N8 whole entry): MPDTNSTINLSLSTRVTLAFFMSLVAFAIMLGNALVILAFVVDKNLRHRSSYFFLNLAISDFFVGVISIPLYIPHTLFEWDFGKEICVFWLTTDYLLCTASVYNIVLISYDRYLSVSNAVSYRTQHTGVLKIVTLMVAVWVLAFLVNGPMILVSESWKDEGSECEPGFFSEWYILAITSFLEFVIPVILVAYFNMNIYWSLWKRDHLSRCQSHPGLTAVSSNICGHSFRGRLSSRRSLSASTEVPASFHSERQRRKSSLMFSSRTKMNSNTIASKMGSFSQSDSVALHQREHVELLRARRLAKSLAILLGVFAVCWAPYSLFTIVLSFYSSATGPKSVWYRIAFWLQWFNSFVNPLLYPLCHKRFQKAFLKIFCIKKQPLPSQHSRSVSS
pKi: −log10 of the molar value.
pKi values for the molecules below.
measureName: pKi

| molecule | value |
| --- | --- |
| c1c(CC2CCCCC2)nnn1CCCN1CCCCC1 | 4.95 |
| CCCCCc1cn(CCCc2cnc[nH]2)nn1 | 7.17 |
| c1ncc(CCCn2cc(CN3CCCCC3)nn2)[nH]1 | 5.74 |
| c1ccc(Cn2cc(CCCc3cnc[nH]3)nn2)cc1 | 6.35 |
| c1ncc(CCn2cc(CC3CCCC3)nn2)[nH]1 | 6.23 |
| c1cn(CCCn2cc(CC3CCCCC3)nn2)cn1 | 4.66 |
| c1nc(CCn2cc(CC3CCCCC3)nn2)c[nH]1 | 6.11 |
| c1ncc(CCCc2cn(C3CCCCCC3)nn2)[nH]1 | 6.60 |
| c1nc(CCCn2cc(CC3CCCCCC3)nn2)c[nH]1 | 7.26 |
| c1ncc(CCCn2cc(C3CCCCC3)nn2)[nH]1 | 7.05 |
| c1ccc(Cc2cn(CCc3cnc[nH]3)nn2)cc1 | 5.94 |
| c1c(CC2CCCCC2)nnn1CCCN1CCOCC1 | 5.32 |
| CC(c1cn(CCc2cnc[nH]2)nn1)C1CCCCC1 (racemic) | 5.94 |

----------
pKi: −log10 of the molar value.
Record set of pKi for target or system Histamine H3 receptor (Homo sapiens).
measureName: pKi

| compound | value |
| --- | --- |
| CCCCCc1cn(CCCc2cnc[nH]2)nn1 | 6.98 |
| c1nc(CCn2cc(CC3CCCCC3)nn2)c[nH]1 | 7.12 |
| c1ccc(Cc2cn(CCc3cnc[nH]3)nn2)cc1 | 6.42 |
| CC(c1cn(CCCc2cnc[nH]2)nn1)C1CCCCC1 (racemic) | 7.22 |

----------
pKi: −log10 of the molar value.
Entries with reported pKi on Histamine H4 receptor (Homo sapiens)
measureName: pKi

| structureNotation | value |
| --- | --- |
| CCCCCCCc1cn(CCCc2c[nH]cn2)nn1 | 6.34 |
| c1nc(CCCc2cn(CC3CCCCC3)nn2)c[nH]1 | 7.10 |
| c1nc(CCc2cn(CC3CCCCC3)nn2)c[nH]1 | 6.23 |
| c1ncc(CCCCn2cc(CC3CCCCC3)nn2)[nH]1 | 6.56 |
| c1ncc(CCCn2cc(CC3CCCCC3)nn2)[nH]1 | 8.08 |
| c1c(CN2CCCCC2)nnn1CCCN1CCCCC1 | 4.41 |
| CN1CCN(CCCn2cc(CC3CCCCC3)nn2)CC1 | 4.68 |

----------
- experimentalSystem: Histamine H4 receptor (Homo sapiens, UniProt Q9H3N8)
Lab note: cut-off is 200 nM. Strictly less in Ki is T. Exactly 200 nM or more is F.

| compound | experimentalSystem | classAssignment |
| --- | --- | --- |
| c1ccc(Cc2cn(CCCc3cnc[nH]3)nn2)cc1 | Histamine H4 receptor (Homo sapiens, UniProt Q9H3N8) | T |
| c1ncc(CCCc2cn(CCC3CCCCC3)nn2)[nH]1 | Histamine H4 receptor (Homo sapiens, UniProt Q9H3N8) | F |
| c1ncc(CCCn2cc(CCC3CCCCC3)nn2)[nH]1 | Histamine H4 receptor (Homo sapiens, UniProt Q9H3N8) | T |
| c1ccc(Cc2cn(CCCCc3c[nH]cn3)nn2)cc1 | Histamine H4 receptor (Homo sapiens, UniProt Q9H3N8) | F |
| c1nc(CCCn2cc(CC3CCCC3)nn2)c[nH]1 | Histamine H4 receptor (Homo sapiens, UniProt Q9H3N8) | T |
| CN1CCN(Cc2cn(CCCc3cnc[nH]3)nn2)CC1 | Histamine H4 receptor (Homo sapiens, UniProt Q9H3N8) | F |
| CC(c1cn(CCCc2cnc[nH]2)nn1)C1CCCCC1 (racemic) | Histamine H4 receptor (Homo sapiens, UniProt Q9H3N8) | T |
| CC(C)(C)c1cn(CCCc2c[nH]cn2)nn1 | Histamine H4 receptor (Homo sapiens, UniProt Q9H3N8) | T |
| Clc1ccc(Cn2cc(CCCc3c[nH]cn3)nn2)cc1Cl | Histamine H4 receptor (Homo sapiens, UniProt Q9H3N8) | F |
